molecular target: Short transient receptor potential channel 4 (Mus musculus) (UniProt Q9QUQ5); assay: blockers of DAMGO-evoked TRPC4 calcium flux – cell-based, second round, Fluo4, HEK293 TRPC4beta/mu-opioid, 1 µM, confirmation (AID 2637); settings: at 1 µM
Sequence (Q9QUQ5 whole entry, looked up): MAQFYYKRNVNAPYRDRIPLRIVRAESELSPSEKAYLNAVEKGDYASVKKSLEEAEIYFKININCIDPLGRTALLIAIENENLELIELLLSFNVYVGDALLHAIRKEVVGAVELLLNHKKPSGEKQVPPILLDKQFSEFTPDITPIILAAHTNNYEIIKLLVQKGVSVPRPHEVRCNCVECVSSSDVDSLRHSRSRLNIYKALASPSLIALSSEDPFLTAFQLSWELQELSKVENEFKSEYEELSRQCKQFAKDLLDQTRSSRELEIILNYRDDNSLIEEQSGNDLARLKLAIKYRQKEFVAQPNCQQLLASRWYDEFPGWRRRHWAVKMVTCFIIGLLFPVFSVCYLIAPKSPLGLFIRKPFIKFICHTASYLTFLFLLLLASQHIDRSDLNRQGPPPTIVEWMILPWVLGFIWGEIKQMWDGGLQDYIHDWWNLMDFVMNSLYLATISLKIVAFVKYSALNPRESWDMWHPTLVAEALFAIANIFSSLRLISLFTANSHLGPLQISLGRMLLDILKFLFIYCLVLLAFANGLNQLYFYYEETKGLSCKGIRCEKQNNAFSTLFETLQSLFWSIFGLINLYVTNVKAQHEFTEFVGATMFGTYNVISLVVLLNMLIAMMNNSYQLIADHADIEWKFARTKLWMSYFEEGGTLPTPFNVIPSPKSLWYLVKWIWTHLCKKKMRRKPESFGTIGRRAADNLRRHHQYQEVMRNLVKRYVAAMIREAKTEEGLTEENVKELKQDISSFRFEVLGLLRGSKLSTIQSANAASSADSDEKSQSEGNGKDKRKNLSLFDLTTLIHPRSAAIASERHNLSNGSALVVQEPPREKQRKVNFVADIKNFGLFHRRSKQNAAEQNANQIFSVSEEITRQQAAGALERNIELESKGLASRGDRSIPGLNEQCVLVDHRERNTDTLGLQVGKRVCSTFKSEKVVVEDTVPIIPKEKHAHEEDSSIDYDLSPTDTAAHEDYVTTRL
Active and inactive are the calls of the source.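 Rule for the calls: active = calcium signal ratio cut to more than 3 SD under the fully stimulated control mean yet still positive, in both repeats and the primary screen; inactive = the rest.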
Labels: 1.0 for active, 0.0 for inactive

>  <COMPOUND>
O=S(=O)(c1ccc(Oc2ccc(Br)cc2)cc1)N1CCOCC1

>  <STUDY_SYSTEM>
Short transient receptor potential channel 4 (Mus musculus) (UniProt Q9QUQ5)

>  <CLASS>
0.0

$$$$
>  <COMPOUND>
Cc1cccc(C)c1-n1cccc1/C=C1\SC(=S)N(c2cccc(C(=O)O)c2)C1=O

>  <STUDY_SYSTEM>
Short transient receptor potential channel 4 (Mus musculus) (UniProt Q9QUQ5)

>  <CLASS>
0.0

$$$$
>  <COMPOUND>
COc1ccc(CN2CCC(n3nccc3NC(=O)CCc3ccccc3)CC2)c(C)c1C

>  <STUDY_SYSTEM>
Short transient receptor potential channel 4 (Mus musculus) (UniProt Q9QUQ5)

>  <CLASS>
0.0

$$$$
>  <COMPOUND>
CC1(C)CN=c2s/c(=C\c3ccc(Cl)cc3)c(=O)n2C1

>  <STUDY_SYSTEM>
Short transient receptor potential channel 4 (Mus musculus) (UniProt Q9QUQ5)

>  <CLASS>
0.0

$$$$
>  <COMPOUND>
COc1cc(C2(c3ccc(O)c(OC)c3)C(=O)Nc3c(C)cc(Br)cc32)ccc1O

>  <STUDY_SYSTEM>
Short transient receptor potential channel 4 (Mus musculus) (UniProt Q9QUQ5)

>  <CLASS>
0.0

$$$$
>  <COMPOUND>
Cc1cccc(CCN(C(=O)c2snc(C(N)=O)c2N)C(C(=O)NCC2CCCO2)c2ccc(F)cc2)c1 (stereo not given)

>  <STUDY_SYSTEM>
Short transient receptor potential channel 4 (Mus musculus) (UniProt Q9QUQ5)

>  <CLASS>
1.0

$$$$
>  <COMPOUND>
c1ccc2c(c1)nnn2-c1ncnc2sc3c(c12)CCCC3

>  <STUDY_SYSTEM>
Short transient receptor potential channel 4 (Mus musculus) (UniProt Q9QUQ5)

>  <CLASS>
0.0

$$$$
>  <COMPOUND>
C1CCN(c2nc(N3CCCC3)nc(N3CCNCC3)n2)C1

>  <STUDY_SYSTEM>
Short transient receptor potential channel 4 (Mus musculus) (UniProt Q9QUQ5)

>  <CLASS>
0.0

$$$$
>  <COMPOUND>
c1ccc(C(c2nnnn2C2CCCC2)N2CCN(c3ccccc3)CC2)cc1 (stereo not given)

>  <STUDY_SYSTEM>
Short transient receptor potential channel 4 (Mus musculus) (UniProt Q9QUQ5)

>  <CLASS>
0.0

$$$$
>  <COMPOUND>
CSC1=NC2(CCCCC2)C2=C(CCCC2)N1

>  <STUDY_SYSTEM>
Short transient receptor potential channel 4 (Mus musculus) (UniProt Q9QUQ5)

>  <CLASS>
0.0

$$$$

###

assay: nonspecific calcium rise without TRPC4 – cell-based, HEK293 mu-opioid receptor line, counter-screen for TRPC4 activator project, confirmation (AID 449723); conditions: HEK293 mu-opioid cells, Fluo-4 calcium fluorescence, at 10 µM; active compounds read high;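 note: counter screen cells carry the mu-opioid receptor alone and lack TRPC4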
Active and inactive are the calls of the source.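 How the source made its calls: active means hit in primary screen, with calcium signal over 5 SD above buffer well mean in both duplicates; inactive means the rest.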
PROPERTY: activation

>  <COMPOUND>
Clc1ccc(C[n+]2cc(-c3ccccc3)n3c2CCC3)cc1Cl

>  <PROPERTY>
activation

>  <RESULT>
inactive

$$$$
>  <COMPOUND>
Cc1cccc(N(C(=O)c2snc(C(N)=O)c2N)C(C(=O)NCC2CCCO2)c2ccc3ncccc3c2)c1 (configuration not stated)

>  <PROPERTY>
activation

>  <RESULT>
inactive

$$$$
>  <COMPOUND>
CCCCN(C)C(=O)Cn1ncc2c3ccccc3n(CCC)c2c1=O

>  <PROPERTY>
activation

>  <RESULT>
inactive

$$$$
>  <COMPOUND>
Cc1ccc(C)c2[nH]c(=O)c(CN(CC3CCCO3)C(=S)NCc3ccco3)cc12 (configuration not stated)

>  <PROPERTY>
activation

>  <RESULT>
inactive

$$$$
>  <COMPOUND>
COc1cc(/C=C2\C(=N)N3N=C(S(C)(=O)=O)SC3=NC2=O)ccc1OC(=O)c1cccs1

>  <PROPERTY>
activation

>  <RESULT>
inactive

$$$$
>  <COMPOUND>
CC(C)(C)NCc1ccccc1OCc1cccs1

>  <PROPERTY>
activation

>  <RESULT>
inactive

$$$$
>  <COMPOUND>
Cc1ccc(S(=O)(=O)NC(=O)N2CCN(Cc3c(F)cccc3Cl)CC2)cc1

>  <PROPERTY>
activation

>  <RESULT>
inactive

$$$$
>  <COMPOUND>
CN(CCc1ccccn1)C1CC(=O)N(c2ccc(Cl)cc2)C1=O (configuration not stated)

>  <PROPERTY>
activation

>  <RESULT>
inactive

$$$$
>  <COMPOUND>
CCOC(=O)C1(CC2CC2)CCN(Cc2cn[nH]c2-c2cccc(F)c2)CC1

>  <PROPERTY>
activation

>  <RESULT>
inactive

$$$$
>  <COMPOUND>
Cc1noc(C)c1COC(=O)[C@@H](NC(=O)c1ccccc1Cl)C(C)C

>  <PROPERTY>
activation

>  <RESULT>
inactive

$$$$
>  <COMPOUND>
OC1(c2ccc(Cl)cc2)CN(c2ccccc2)C2=[N+]1CCS2 (configuration not stated)

>  <PROPERTY>
activation

>  <RESULT>
inactive

$$$$
>  <COMPOUND>
CCc1cc2c(SCC(=O)N(C)C3CCS(=O)(=O)C3)ncnc2s1 (configuration not stated)

>  <PROPERTY>
activation

>  <RESULT>
inactive

$$$$
>  <COMPOUND>
CC(C)c1cccc(OCCCCN(C)C)c1

>  <PROPERTY>
activation

>  <RESULT>
inactive

$$$$
>  <COMPOUND>
COc1cc(Cl)c(S(=O)(=O)N2CCN(Cc3ccc4c(c3)OCO4)CC2)cc1Cl

>  <PROPERTY>
activation

>  <RESULT>
inactive

$$$$
>  <COMPOUND>
COc1ccc(C(CNC(=O)COc2ccccc2OC)N(C)C)cc1OC (configuration not stated)

>  <PROPERTY>
activation

>  <RESULT>
inactive

$$$$
>  <COMPOUND>
Cc1ccccc1-n1c(=O)c2c(n3cnnc13)-c1ccccc1CC21CCCCC1

>  <PROPERTY>
activation

>  <RESULT>
inactive

$$$$
>  <COMPOUND>
CCN1C(=O)/C(=C/C=C2\N(CC)c3cc(S(=O)(=O)N(C)C)ccc3N2c2ccccc2)SC1=S

>  <PROPERTY>
activation

>  <RESULT>
inactive

$$$$
>  <COMPOUND>
CN(C)S(=O)(=O)c1cccc(COC(=O)c2ccc(Cl)cc2O)c1

>  <PROPERTY>
activation

>  <RESULT>
inactive

$$$$
>  <COMPOUND>
CC(C)(C)Cc1nc2ccccc2n1CCc1ccccc1

>  <PROPERTY>
activation

>  <RESULT>
inactive

$$$$
>  <COMPOUND>
CN1CCN(c2ccc(NC(=O)COc3cccc4ccccc34)cc2)CC1

>  <PROPERTY>
activation

>  <RESULT>
inactive

$$$$
>  <COMPOUND>
Cc1ccc(/C=N/NC(=O)C2COc3ccccc3O2)s1 (configuration not stated)

>  <PROPERTY>
activation

>  <RESULT>
inactive

$$$$
>  <COMPOUND>
CC(C)Cc1nc(N2CCOCC2)c(C#N)c2c1CCC2

>  <PROPERTY>
activation

>  <RESULT>
inactive

$$$$

###

target: Short transient receptor potential channel 6 (Mus musculus) (UniProt Q61143); assay: TRPC6 blockade by TRPC4 inhibitor hits – cell-based, HEK293, membrane potential dye, duplicate, selectivity assay for TRPC4 inhibitor project, confirmation (AID 434948); details: HEK293 TRPC6, membrane potential dye fluorescence, at 10 µM, stimulated with maximal-effect acetylcholine
Sequence (Q61143 whole entry, looked up): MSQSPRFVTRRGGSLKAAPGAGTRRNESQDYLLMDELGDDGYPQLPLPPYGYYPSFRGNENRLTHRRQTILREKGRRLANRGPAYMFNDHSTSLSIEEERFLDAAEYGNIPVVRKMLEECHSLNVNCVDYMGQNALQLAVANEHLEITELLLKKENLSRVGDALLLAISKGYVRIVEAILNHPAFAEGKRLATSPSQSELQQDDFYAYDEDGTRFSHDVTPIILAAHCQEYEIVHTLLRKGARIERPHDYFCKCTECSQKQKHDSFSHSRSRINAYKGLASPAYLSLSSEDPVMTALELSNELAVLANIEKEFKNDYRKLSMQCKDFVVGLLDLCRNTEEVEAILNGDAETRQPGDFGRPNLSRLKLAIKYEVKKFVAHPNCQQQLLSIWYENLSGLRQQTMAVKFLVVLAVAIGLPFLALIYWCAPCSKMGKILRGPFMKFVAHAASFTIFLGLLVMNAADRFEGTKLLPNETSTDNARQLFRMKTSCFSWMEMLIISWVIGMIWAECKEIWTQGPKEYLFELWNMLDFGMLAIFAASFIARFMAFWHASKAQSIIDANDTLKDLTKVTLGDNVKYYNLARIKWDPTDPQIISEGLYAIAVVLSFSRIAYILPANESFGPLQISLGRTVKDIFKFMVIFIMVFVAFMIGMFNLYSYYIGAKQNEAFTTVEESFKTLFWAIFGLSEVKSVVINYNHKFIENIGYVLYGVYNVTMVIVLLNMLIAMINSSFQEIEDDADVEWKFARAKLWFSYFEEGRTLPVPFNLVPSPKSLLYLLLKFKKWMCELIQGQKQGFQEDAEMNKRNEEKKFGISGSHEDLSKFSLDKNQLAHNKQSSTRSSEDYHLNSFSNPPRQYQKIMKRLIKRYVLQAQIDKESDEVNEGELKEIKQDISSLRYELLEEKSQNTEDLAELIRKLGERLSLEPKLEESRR
Active and inactive are the calls of the source.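 The calls were made as follows: active = active in primary screen and both duplicates, each dropping signal beyond three positive-control SD with fluorescence still positive; inactive = the rest.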
Labels: active, inactive

>  <MOLECULE>
Clc1ccc(C[n+]2cc(-c3ccccc3)n3c2CCC3)cc1Cl

>  <STUDY_SYSTEM>
Short transient receptor potential channel 6 (Mus musculus) (UniProt Q61143)

>  <CLASS>
inactive

$$$$
>  <MOLECULE>
CCOc1ccccc1N(CC(=O)N1CCOCC1)S(=O)(=O)c1ccc(SC)cc1

>  <STUDY_SYSTEM>
Short transient receptor potential channel 6 (Mus musculus) (UniProt Q61143)

>  <CLASS>
inactive

$$$$
>  <MOLECULE>
COCCn1c(SCC(=O)Nc2ccccc2OC)nc2c([nH]c3ccccc32)c1=O

>  <STUDY_SYSTEM>
Short transient receptor potential channel 6 (Mus musculus) (UniProt Q61143)

>  <CLASS>
inactive

$$$$
>  <MOLECULE>
Cn1cc(-c2nc3ccccc3[nH]2)c2ccccc21

>  <STUDY_SYSTEM>
Short transient receptor potential channel 6 (Mus musculus) (UniProt Q61143)

>  <CLASS>
active

$$$$
>  <MOLECULE>
Cc1sc2nc(SCC(N)=O)n(C)c(=O)c2c1C

>  <STUDY_SYSTEM>
Short transient receptor potential channel 6 (Mus musculus) (UniProt Q61143)

>  <CLASS>
inactive

$$$$
>  <MOLECULE>
Cc1[nH]n2c(=O)c3c(nc2c1-c1ccccc1)CCC3

>  <STUDY_SYSTEM>
Short transient receptor potential channel 6 (Mus musculus) (UniProt Q61143)

>  <CLASS>
inactive

$$$$
>  <MOLECULE>
COC(=O)[C@@]12CCCN1[C@H](c1ccc(-c3ccc(OC)cc3)cc1)[C@@H]1C(=O)N(C)C(=O)[C@@H]12

>  <STUDY_SYSTEM>
Short transient receptor potential channel 6 (Mus musculus) (UniProt Q61143)

>  <CLASS>
inactive

$$$$
>  <MOLECULE>
CN(C)c1ccc(/C=C/C(=O)c2c(O)c3ccccc3oc2=O)cc1

>  <STUDY_SYSTEM>
Short transient receptor potential channel 6 (Mus musculus) (UniProt Q61143)

>  <CLASS>
inactive

$$$$
>  <MOLECULE>
Cc1ccc(-n2cc(CNC(C)c3cnn(C)c3)c(-c3ccc(F)cc3)n2)cc1 (configuration not stated)

>  <STUDY_SYSTEM>
Short transient receptor potential channel 6 (Mus musculus) (UniProt Q61143)

>  <CLASS>
inactive

$$$$
>  <MOLECULE>
COCCn1c(SCc2cccc([N+](=O)[O-])c2)nc2ccccc2c1=O

>  <STUDY_SYSTEM>
Short transient receptor potential channel 6 (Mus musculus) (UniProt Q61143)

>  <CLASS>
inactive

$$$$
>  <MOLECULE>
COc1ccc(NC(=O)c2cccc(N3C(=O)C4CC=C(C)CC4C3=O)c2)c(OC)c1 (configuration not stated)

>  <STUDY_SYSTEM>
Short transient receptor potential channel 6 (Mus musculus) (UniProt Q61143)

>  <CLASS>
inactive

$$$$
>  <MOLECULE>
Cc1cc(N2CCOCC2)nc(NCc2ccccc2)n1

>  <STUDY_SYSTEM>
Short transient receptor potential channel 6 (Mus musculus) (UniProt Q61143)

>  <CLASS>
inactive

$$$$
>  <MOLECULE>
COc1ccc(Cl)c2sc(N(CCN(C)C)C(=O)c3ccc4c(c3)OCCO4)nc12

>  <STUDY_SYSTEM>
Short transient receptor potential channel 6 (Mus musculus) (UniProt Q61143)

>  <CLASS>
inactive

$$$$
>  <MOLECULE>
CN(C)CCCN(C(=O)c1ccc(S(=O)(=O)N2CCc3ccccc3C2)cc1)c1nc2c(F)cc(F)cc2s1

>  <STUDY_SYSTEM>
Short transient receptor potential channel 6 (Mus musculus) (UniProt Q61143)

>  <CLASS>
inactive

$$$$
>  <MOLECULE>
CNCC(=O)N1CCN(c2ncc(C(F)(F)F)cc2Cl)CC1

>  <STUDY_SYSTEM>
Short transient receptor potential channel 6 (Mus musculus) (UniProt Q61143)

>  <CLASS>
inactive

$$$$
>  <MOLECULE>
C=CCc1cc(Cl)ccc1OCCCn1ccnc1

>  <STUDY_SYSTEM>
Short transient receptor potential channel 6 (Mus musculus) (UniProt Q61143)

>  <CLASS>
inactive

$$$$
>  <MOLECULE>
CNc1nc(N2CCc3ccccc32)ncc1F

>  <STUDY_SYSTEM>
Short transient receptor potential channel 6 (Mus musculus) (UniProt Q61143)

>  <CLASS>
inactive

$$$$
>  <MOLECULE>
COc1ccccc1N1CCN(CC(C)N(C(=O)C2CCCCC2)c2ccccn2)CC1 (configuration not stated)

>  <STUDY_SYSTEM>
Short transient receptor potential channel 6 (Mus musculus) (UniProt Q61143)

>  <CLASS>
inactive

$$$$
>  <MOLECULE>
O=c1c2ccccc2nc(SCc2ccc([N+](=O)[O-])cc2)n1CCCO

>  <STUDY_SYSTEM>
Short transient receptor potential channel 6 (Mus musculus) (UniProt Q61143)

>  <CLASS>
inactive

$$$$
>  <MOLECULE>
COc1cccc(C2=NN(C(=O)c3ccco3)C(c3ccco3)C2)c1 (configuration not stated)

>  <STUDY_SYSTEM>
Short transient receptor potential channel 6 (Mus musculus) (UniProt Q61143)

>  <CLASS>
inactive

$$$$
>  <MOLECULE>
CCN(CC)CCCNC(=O)c1cc2c(-c3ccc(Cl)cc3)nn(C)c2s1

>  <STUDY_SYSTEM>
Short transient receptor potential channel 6 (Mus musculus) (UniProt Q61143)

>  <CLASS>
inactive

$$$$
>  <MOLECULE>
CCCCN(CC)CCNc1c(N2CCN(C(=O)OCC)CC2)c(=O)c1=O

>  <STUDY_SYSTEM>
Short transient receptor potential channel 6 (Mus musculus) (UniProt Q61143)

>  <CLASS>
inactive

$$$$
